These data points were gathered from ChEMBL document CHEMBL1133353.

- Organism: Rattus norvegicus
- Assay method text: Compound was tested for inhibition of whole cell current induced […]
- Format: functional, cell-based
Result type: pIC50
The scale used: pIC50 is minus the common logarithm of the concentration in molar units.

chem_smiles=CC1=NN=C(c2ccc(N)cc2)c2cc3c(cc2C1)OCO3 result_type=pIC50 measured_value=5.00

Now, please, on to the next compound.
Ask: Reported pIC50, compound `CC(=O)N1N=C(c2ccc(N)cc2)c2cc3c(cc2C[C@H]1C)OCO3` : ____
Result: 5.60

###

- Organism: Gallus gallus
- Assay method text: Compound was examined in vitro for inhibition of kainate (5 uM) evoked spreading depression in isolated retina prepared from young chicken
- Type: functional
Result type: pIC50
The scale used: pIC50 is minus the common logarithm of the concentration in molar units.

Solved cases (3 shown):
molecule="CC(=O)N1CC(C)c2cc3c(cc2C(c2ccc(N)cc2)=N1)OCO3 (centres undefined)" result_type=pIC50 measured_value=5.47
molecule="CNC(=O)N1CC(C)c2cc3c(cc2C(c2ccc(N)cc2)=N1)OCO3 (centres undefined)" result_type=pIC50 measured_value=4.70
molecule=CC1=NN=C(c2ccc(N)cc2)c2cc3c(cc2C1)OCO3 result_type=pIC50 measured_value=5.02

Now, please, on to the next molecule.
Ask: Reported pIC50, molecule `CC(=O)N1N=C(c2ccc(N)cc2)c2cc3c(cc2C[C@H]1C)OCO3` : ____
Result: 5.59
